biological target: type 4 phosphodiesterases (PDE4); test: Inhibition of the phosphodiesterase (PDE4), enzymatic preparation from line U937; details: PDE4 from cytosolic preparation of human cell line U937
// reported IC50 per item
Record the result as number plus unit.

Recorded results for 4 compounds are shown here.
compound: O=C(Cc1ccc(Cn2c(=O)c3cc(Br)ccc3n3c(N4CCCC4)nnc23)cc1)NO [Compound 243]
measurement_label: IC50
val: 0.028 µM
--
compound: O=c1c2cc(Br)ccc2n2c(N3CCCC3)nnc2n1CC=Cc1cccnc1 [Compound 61]
measurement_label: IC50
val: 0.011 µM
--
compound: Cc1ccc2c(c1)c(=O)n(CC=Cc1cccnc1)c1nnc(N(C)C)n21 [Compound 104]
measurement_label: IC50
val: 0.077 µM
--
compound: O=c1c2cc(Br)ccc2n2c(N3CCCC3)nnc2n1Cc1ccc([N+](=O)[O-])cc1 [Compound 48]
measurement_label: IC50
val: 0.025 µM

Req: # return recorded IC50 for entry CN(C)c1nnc2n(Cc3ccc(CC#N)cc3)c(=O)c3cc(Br)ccc3n12 [Compound 83]
Resp: 0.012 µM

Req: Please indicate IC50 recorded for Cc1ccc2c(c1)c(=O)n(Cc1ccc(CC(=O)O)cc1)c1nnc(N(C)C)n21 [Compound 102]
Resp: 0.06 µM

Req: State its IC50 for this compound: COC(=O)C(c1ccccc1)n1nc(N(C)C)n2c3ccc(Br)cc3c(=O)nc12 (centres unmarked) [Compound 156]
Resp: 0.09 µM

Req: For Cc1ccc2c(c1)c(=O)n(Cc1ccc(CC(=O)O)cc1)c1nnc(N3CCCC3)n21 [Compound 96] , write its IC50.
Resp: 0.058 µM

Req: Could you please provide reported IC50 for O=c1c2cc(Br)ccc2n2c(N3CCCC3)nnc2n1Cc1ccc(Cl)cc1 [Compound 43] ? Thanks!
Resp: 0.03 µM

Req: For the compound N#Cc1ccc(Cn2c(=O)c3cc(Br)ccc3n3c(N4CCCC4)nnc23)cc1 [Compound 46] , give its measured IC50 value.
Resp: 0.09 µM

Req: Identify measured IC50 associated with O=c1c2cc(Br)ccc2n2c(N3CCCC3)nnc2n1C/C=C/c1ccc(Cl)cc1 [Compound 59]
Resp: 0.09 µM

Req: Give IC50 for CN(C)c1nnc2n(C/C=C/c3ccccc3)c(=O)c3cc(N)ccc3n12 [Compound 229]
Resp: 0.08 µM

Req: Output measured IC50 for this item: O=c1c2cc(Cl)ccc2n2c(N3CCCCCC3)nnc2n1Cc1ccc(F)cc1 [Compound 13]
Resp: 0.06 µM

Req: Quick one: give measured IC50 for COc1ccc(Cn2c(=O)c3cc(C)ccc3n3c(N4CCCC4)nnc23)cc1OC [Compound 94]
Resp: 0.029 µM

Req: Give IC50 for O=c1c2cc(Br)ccc2n2c(N3CCCCCC3)nnc2n1Cc1ccc(Cl)cc1 [Compound 32]
Resp: 0.053 µM

Req: Write down IC50 measured for item O=c1c2cc(Cl)ccc2n2c(N3CCCCCC3)nnc2n1CC=Cc1ccccc1 [Compound 1]
Resp: 0.054 µM

Req: For the compound CN(C)c1nnc2n(CC#Cc3ccccc3)c(=O)c3cc(Br)ccc3n12 [Compound 89] , report IC50.
Resp: 0.027 µM

----------
Catalogue of melting point readings, one per entry.
Number only, in °C; omit the unit.

See these solved cases before continuing.
chem_smiles: O=c1nc2n(Cc3ccc(F)cc3)nc(N3CCCC3)n2c2ccc(Br)cc12
measurement_label: melting point
val: 233
//
chem_smiles: O=c1c2cc(Br)ccc2n2c(N3CC=CC3)nnc2n1Cc1ccccc1
measurement_label: melting point
val: 210
//
chem_smiles: Cc1ccc2c(c1)c(=O)n(CC=Cc1cccnc1)c1nnc(N(C)C)n21
measurement_label: melting point
val: 155

Req: Return melting point (reported value) for this molecule: Cc1ccc2c(c1)c(=O)nc1n(CC=Cc3ccccc3)nc(N3CCCC3)n21
Resp: 225
